Tested on: 817829-284-R-J1-PDC complex spheroids, viability
assay explanation: Anticancer human tumor 817829-284-R-J1-PDC patient-derived colon adenocarcinoma cell line growth inhibition [GQUAD]
condition info: second compound 1 µM; first compound 0.316 µM; active compounds read low
So I've got a bunch of molecules here, and I need their viability, T/C values.
State the answer as a number, implicitly in %.

What measured viability, T/C goes with O=c1[nH]cc(F)c(=O)[nH]1 + Cc1cnc(CNC(=O)c2c(=O)c3ccc(N4CCCN(C)CC4)nc3n3c2sc2ccccc23)cn1 ?
23.5

Thanks! And O=C(c1cc(Cc2n[nH]c(=O)c3ccccc23)ccc1F)N1CCN(C(=O)C2CC2)CC1 + Cc1[nH]c2ccc(F)cc2c1-c1nc2c3cccnc3c3ncccc3c2[nH]1 ?
97.8

Thanks! And CC(C)n1c(=O)n(C)c2cnc3cc(F)c(-c4ccc(OCCCN5CCCCC5)nc4)cc3c21 + Cc1[nH]c2ccc(F)cc2c1-c1nc2c3cccnc3c3ncccc3c2[nH]1 ?
120

Thanks! And CCCS(=O)(=O)Nc1ccc(F)c(C(=O)c2c[nH]c3ncc(-c4ccc(Cl)cc4)cc23)c1F + Cc1cnc(CNC(=O)c2c(=O)c3ccc(N4CCCN(C)CC4)nc3n3c2sc2ccccc23)cn1 ?
18.6

Thanks! And COc1ccc([C@@H](O)c2cc(-c3ncnc4cc(N5CCOCC5)ccc34)c(F)cc2Cl)nn1 + Cc1[nH]c2ccc(F)cc2c1-c1nc2c3cccnc3c3ncccc3c2[nH]1 ?
132

Thanks! And C#Cc1c(F)ccc2cc(O)cc(-c3ncc4c(N5CC6CCC(C5)N6)nc(OCC56CCCN5CC(F)C6)nc4c3F)c12 (stereo unspecified) + Cc1cnc(CNC(=O)c2c(=O)c3ccc(N4CCCN(C)CC4)nc3n3c2sc2ccccc23)cn1 ?
20.6

Thanks! And O=c1[nH]cc(F)c(=O)[nH]1 + Cc1[nH]c2ccc(F)cc2c1-c1nc2c3cccnc3c3ncccc3c2[nH]1 ?
113

Thanks! And CC(=O)O[C@H]1C(=O)[C@@]2(C)[C@H]([C@H](OC(=O)c3ccccc3)[C@]3(O)C[C@H](OC(=O)[C@H](O)[C@@H](NC(=O)c4ccccc4)c4ccccc4)C(C)=C1C3(C)C)[C@]1(OC(C)=O)CO[C@@H]1C[C@@H]2O + Cc1[nH]c2ccc(F)cc2c1-c1nc2c3cccnc3c3ncccc3c2[nH]1 ?
6.33

Thanks! And C=CCn1c(=O)c2cnc(Nc3ccc(N4CCN(C)CC4)cc3)nc2n1-c1cccc(C(C)(C)O)n1 + Cc1[nH]c2ccc(F)cc2c1-c1nc2c3cccnc3c3ncccc3c2[nH]1 ?
26.2

Thanks! And CC(C)n1c(=O)n(C)c2cnc3cc(F)c(-c4ccc(OCCCN5CCCCC5)nc4)cc3c21 + CN(C)c1ccc(Nc2c3ccc(NC(=O)CCN4CCCC4)cc3nc3cc(NC(=O)CCN4CCCC4)ccc23)cc1 ?
97.6

Thanks! And COc1cccc2c1C(=O)c1c(O)c3c(c(O)c1C2=O)CC(O)(C(=O)CO)CC3OC1CC(N)C(O)C(C)O1 (stereo unspecified) + Cc1cnc(CNC(=O)c2c(=O)c3ccc(N4CCCN(C)CC4)nc3n3c2sc2ccccc23)cn1 ?
18.9

* * *

System: 817829-284-R-J1-PDC complex spheroids, viability
assay explanation: Anticancer human tumor 817829-284-R-J1-PDC cell line growth inhibition [GQUAD]; active means viability on the fitted dose curve at most 10% of control; inactive means the rest;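 also: spheroids exposed to agents for 7 days before readout; percent viability relative to DMSO vehicle control taken as 100%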
condition info: second compound 1 µM; first compound 0.316 µM
Return exactly one item of true (1) = active, false (0) = inactive

Outcome logged for COc1ccc([C@@H](O)c2cc(-c3ncnc4cc(N5CCOCC5)ccc34)c(F)cc2Cl)nn1 + CN(C)c1ccc(Nc2c3ccc(NC(=O)CCN4CCCC4)cc3nc3cc(NC(=O)CCN4CCCC4)ccc23)cc1 in this assay:
false (0)

Thanks! And C#Cc1c(F)ccc2cc(O)cc(-c3ncc4c(N5CC6CCC(C5)N6)nc(OCC56CCCN5CC(F)C6)nc4c3F)c12 (stereo not drawn) + Cc1[nH]c2ccc(F)cc2c1-c1nc2c3cccnc3c3ncccc3c2[nH]1 ?
false (0)

Thanks! And Nc1ccn(C2OC(CO)C(O)C2(F)F)c(=O)n1 (stereo not drawn) + Cc1cnc(CNC(=O)c2c(=O)c3ccc(N4CCCN(C)CC4)nc3n3c2sc2ccccc23)cn1 ?
true (1)
